# assay_details: Aqueous solubility of the compound at pH 6.5
# Assay type: physicochemical
# cond: buffer
property_measured: solubility

Problem: Record request: solubility value, item `CNc1cc(Nc2cccn(-c3ccc(C#N)cc3)c2=O)nn2c(C(=O)NC3CC3)cnc12`
Result: < 1 µg/mL

====

# assay_details: Oral bioavailability in mouse at 10 mg/kg
# Format: ADME, organism-based
# cond: in vivo
property_measured: bioavailability (%)
Answer format: numeric, % implied, no suffix.

Problem: Field request: bioavailability | item: `CNc1cc(Nc2cccn(-c3ccccn3)c2=O)nn2c(C(=O)N[C@@H]3C[C@@H]3F)cnc12`
Result: 86

====

# assay_details: Oral bioavailability in dog at 10 mg/kg
# Format: ADME, organism-based, Canis lupus familiaris
# cond: in vivo
property_measured: bioavailability (%)
The response must be a number in % with no trailing unit.

Problem: Please look up its bioavailability: `CNc1cc(Nc2cccn(-c3ccccn3)c2=O)nn2c(C(=O)N[C@@H]3C[C@@H]3F)cnc12`
Result: 50
